Target: PAI-1 (Homo sapiens, UniProt P05121)
Sequence (P05121 24-402): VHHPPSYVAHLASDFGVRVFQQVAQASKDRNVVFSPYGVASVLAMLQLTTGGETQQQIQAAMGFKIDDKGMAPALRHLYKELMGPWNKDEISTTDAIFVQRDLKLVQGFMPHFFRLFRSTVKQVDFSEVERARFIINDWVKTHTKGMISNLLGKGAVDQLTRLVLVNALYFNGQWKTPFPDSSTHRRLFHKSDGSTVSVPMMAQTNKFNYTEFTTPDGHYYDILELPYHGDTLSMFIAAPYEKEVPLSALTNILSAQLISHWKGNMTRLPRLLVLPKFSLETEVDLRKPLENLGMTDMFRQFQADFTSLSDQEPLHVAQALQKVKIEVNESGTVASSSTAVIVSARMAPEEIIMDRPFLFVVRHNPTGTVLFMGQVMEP
Assay: PAI chromogenic substrate assay (first S2251 assay, tPA/plasminogen system)
Type: biochemical
Conditions: Concentration 50 μm
readout type: Inhibition of PAI-1 in the first S2251 chromogenic substrate assay (%)

COc1ccc(/C=c2\[nH]c(=O)/c(=C/c3ccc(OC(=O)C(C)(C)C)cc3)[nH]c2=O)cc1 : 1

a. O=c1[nH]/c(=C\c2ccc(F)cc2F)c(=O)[nH]/c1=C\c1ccccc1
b. Nc1ccccc1/C=c1\[nH]c(=O)/c(=C/c2ccccc2)[nH]c1=O
c. CSCc1ccc(/C=c2\[nH]c(=O)/c(=C/c3ccccc3)[nH]c2=O)cc1
d. COc1ccc(/C=c2\[nH]c(=O)/c(=C/c3ccc(NC(=O)CO)cc3)[nH]c2=O)cc1
e. COc1ccc(/C=c2\[nH]c(=O)/c(=C/c3ccc(OC)cc3OC)[nH]c2=O)cc1
Ordering: ascending Inhibition of PAI-1 in the first S2251 chromogenic substrate assay. Give your ranking as a list of the labels in the requested order.
a, e, b, d, c
(a: 0%, e: 3%, b: 20%, d: 49%, c: 76%)

I. COc1ccc(/C=c2\[nH]c(=O)/c(=C/c3ccc(NC(C)=O)cc3)[nH]c2=O)cc1OC
II. COc1ccc(/C=c2\[nH]c(=O)/c(=C/c3ccccc3)[nH]c2=O)cc1OC
III. Nc1ccc(/C=c2\[nH]c(=O)/c(=C/c3ccccc3)[nH]c2=O)cc1
IV. COC(=O)Nc1ccc(/C=c2\[nH]c(=O)/c(=C/c3ccc(OC)cc3)[nH]c2=O)cc1
Order each entry by recorded Inhibition of PAI-1 in the first S2251 chromogenic substrate assay, climbing from the minimum. List the labels, following the order given in the request.
IV, III, I, II
(IV: 1%, III: 23%, I: 44%, II: 85%)

A. O=c1[nH]/c(=C\c2ccccc2Br)c(=O)[nH]/c1=C\c1ccccc1
B. CN(C)CCCOc1ccc(/C=c2\[nH]c(=O)/c(=C/c3ccccc3)[nH]c2=O)cc1 [Compound 98]
Would you mind telling me which has the lower recorded Inhibition of PAI-1 in the first S2251 chromogenic substrate assay between A and B ? Answer with the label corresponding to your selection.
A

A. CC(=O)Nc1ccc(/C=c2\[nH]c(=O)/c(=C/c3ccc(COC(C)=O)cc3)[nH]c2=O)cc1
B. CC(=O)Nc1ccc(/C=c2\[nH]c(=O)/c(=C/c3ccc(F)cc3F)[nH]c2=O)cc1
C. COc1ccc(/C=c2\[nH]c(=O)/c(=C/c3ccc(N(C)C(C)=O)cc3)[nH]c2=O)cc1
D. O=c1[nH]/c(=C\c2cccc(O)c2)c(=O)[nH]/c1=C\c1ccccc1
E. O=c1[nH]/c(=C\c2ccccc2)c(=O)[nH]/c1=C\c1ccccc1
Please order the records by their reported Inhibition of PAI-1 in the first S2251 chromogenic substrate assay, lowest number first. Would you mind listing the labels in the order asked for?
D, E, A, C, B
(D: 3%, E: 13%, A: 31%, C: 45%, B: 66%)

----------
Biological target: PAI-1 (Homo sapiens)
Assay: PAI chromogenic substrate assay (first S2251 assay, tPA/plasminogen system)
Type: biochemical
Details: Concentration 100 μm
readout type: Inhibition of PAI-1 in the first S2251 chromogenic substrate assay (%)

Worked cases, answers included:
CCCCOc1ccc(/C=c2\[nH]c(=O)/c(=C/c3ccc(OC)cc3)[nH]c2=O)cc1 [Compound 47] : 75
O=c1[nH]/c(=C\c2c(Cl)cccc2Cl)c(=O)[nH]/c1=C\c1ccccc1 [Compound 21] : 79
COc1ccc(/C=c2\[nH]c(=O)/c(=C/c3ccccc3Br)[nH]c2=O)cc1 [Compound 53] : 55
Nc1ccc(/C=c2\[nH]c(=O)/c(=C/c3ccccc3)[nH]c2=O)cc1 [Compound 30] : 66
COc1ccc(/C=c2\[nH]c(=O)/c(=C/c3ccc(OC(C)C)cc3)[nH]c2=O)cc1 [Compound 49] : 60

a. COc1ccc(/C=c2\[nH]c(=O)/c(=C/c3ccc(N(C)C(C)=O)cc3)[nH]c2=O)cc1 [Compound 41]
b. COc1ccc(/C=c2\[nH]c(=O)/c(=C/c3ccc(NC(C)=O)cc3)[nH]c2=O)cc1OC [Compound 92]
Param metric = Inhibition of PAI-1 in the first S2251 chromogenic substrate assay; output whichever of a , b has the minimum value. Your answer should be the label of the entry you select.
a

A. O=c1[nH]c(=Cc2ccccc2)c(=O)[nH]c1=Cc1ccccc1 [Compound 22, 3,6-Dibenzylidene-2,5-piperazinedione]
B. CC(=O)Nc1ccc(/C=c2\[nH]c(=O)/c(=C/c3ccc(N(C)C)cc3)[nH]c2=O)cc1 [Compound 86]
When A and B are compared, which has the higher number for Inhibition of PAI-1 in the first S2251 chromogenic substrate assay? Output the label that corresponds to your choice.
A
(A: 61%, B: 23%)

----------
Biological target: PAI-1 (Homo sapiens, UniProt P05121)
Assay: PAI chromogenic substrate assay (first S2251 assay, tPA/plasminogen system)
Format: biochemical
Conditions: Concentration 25 μm
readout type: Inhibition of PAI-1 in the first S2251 chromogenic substrate assay (%)

Known Inhibition of PAI-1 in the first S2251 chromogenic substrate assay results, listed for orientation:
COc1ccc(/C=c2\[nH]c(=O)/c(=C/c3ccc(OC)cc3OC)[nH]c2=O)cc1 : 1
CC(=O)SCc1cccc(/C=c2\[nH]c(=O)/c(=C/c3ccccc3)[nH]c2=O)c1 : 69
CC(C)Oc1ccc(/C=c2\[nH]c(=O)/c(=C/c3ccccc3)[nH]c2=O)cc1 : 15
O=c1[nH]/c(=C\c2ccc(O)cc2Cl)c(=O)[nH]/c1=C\c1ccccc1 : 43
O=c1[nH]c(=Cc2ccccc2)c(=O)[nH]c1=Cc1ccccc1 : 1
CC(=O)OCc1ccc(/C=c2\[nH]c(=O)/c(=C/c3ccccc3)[nH]c2=O)cc1 : 3
O=c1[nH]/c(=C\c2cccc(O)c2)c(=O)[nH]/c1=C\c1ccccc1 : 1
CC(=O)SCc1ccc(/C=c2\[nH]c(=O)/c(=C/c3ccccc3)[nH]c2=O)cc1 : 50
CC(C)(C)c1ccc(/C=c2\[nH]c(=O)/c(=C/c3ccccc3)[nH]c2=O)cc1 : 38
COc1ccc(/C=c2\[nH]c(=O)/c(=C/c3ccc(OC(=O)C(C)(C)C)cc3)[nH]c2=O)cc1 : 1

I. CC(=O)Oc1ccccc1/C=c1\[nH]c(=O)/c(=C/c2ccccc2)[nH]c1=O
II. COc1ccc(/C=c2\[nH]c(=O)/c(=C/c3ccc(O)cc3)[nH]c2=O)cc1
III. O=C(O)CCCCOc1ccc(/C=c2\[nH]c(=O)/c(=C/c3ccccc3)[nH]c2=O)cc1
IV. CCCCOc1ccc(/C=c2\[nH]c(=O)/c(=C/c3ccc(OC)cc3)[nH]c2=O)cc1
V. COc1ccc(/C=c2\[nH]c(=O)/c(=C/c3ccc(S(C)(=O)=O)cc3)[nH]c2=O)cc1
Write the entries in order, lowest recorded Inhibition of PAI-1 in the first S2251 chromogenic substrate assay first. Please list the labels according to the requested order.
II, I, IV, V, III
(II: 1%, I: 3%, IV: 14%, V: 38%, III: 73%)

----------
Target: PAI-1 (Homo sapiens)
Assay: PAI chromogenic substrate assay (first S2251 assay, tPA/plasminogen system)
Type: biochemical
Conditions: Concentration 25 μm
readout type: Inhibition of PAI-1 in the first S2251 chromogenic substrate assay (%)

1. COc1ccc(/C=c2\[nH]c(=O)/c(=C/c3ccccc3Br)[nH]c2=O)cc1
2. COC(=O)CCCCOc1ccc(/C=c2\[nH]c(=O)/c(=C/c3ccccc3)[nH]c2=O)cc1
3. O=c1[nH]/c(=C\c2c(Cl)cccc2Cl)c(=O)[nH]/c1=C\c1ccccc1
// smallest Inhibition of PAI-1 in the first S2251 chromogenic substrate assay at index 0, largest at the end Respond with an ordered listing of the labels, as requested.
3, 1, 2
(3: 2%, 1: 9%, 2: 47%)

----------
Target: PAI-1 (Homo sapiens, UniProt P05121)
Assay: PAI chromogenic substrate assay (first S2251 assay, tPA/plasminogen system)
Format: biochemical
Settings: Concentration 50 μm
readout type: Inhibition of PAI-1 in the first S2251 chromogenic substrate assay (%)

Here are 8 compounds together with their reported answers.
COc1ccc(/C=c2\[nH]c(=O)/c(=C/c3ccc(C(N)=O)cc3)[nH]c2=O)cc1 : 9
COc1ccc(/C=c2\[nH]c(=O)/c(=C/c3ccccc3)[nH]c2=O)cc1 : 74
CC(=O)OCc1ccc(/C=c2\[nH]c(=O)/c(=C/c3ccccc3)[nH]c2=O)cc1 : 45
CC(=O)SCc1ccc(/C=c2\[nH]c(=O)/c(=C/c3ccccc3)[nH]c2=O)cc1 : 75
COc1ccc(/C=c2\[nH]c(=O)/c(=C/c3ccc(CS(C)(=O)=O)cc3)[nH]c2=O)cc1 : 52
CC(=O)Nc1ccc(/C=c2\[nH]c(=O)/c(=C/c3ccc(OC(=O)C(C)(C)C)cc3)[nH]c2=O)cc1 : 3
CC(=O)SCc1cccc(/C=c2\[nH]c(=O)/c(=C/c3ccccc3)[nH]c2=O)c1 : 88
CCCCOc1ccc(/C=c2\[nH]c(=O)/c(=C/c3ccccc3)[nH]c2=O)cc1 : 57

I. CC(=O)Oc1ccccc1/C=c1\[nH]c(=O)/c(=C/c2ccccc2)[nH]c1=O
II. O=c1[nH]c(=Cc2ccccc2)c(=O)[nH]c1=Cc1ccccc1
// task: argmin of Inhibition of PAI-1 in the first S2251 chromogenic substrate assay over [ I , II ] Give the label of your selection.
II
(II: 2%, I: 36%)
